# measured_on: human CRTH2 (Homo sapiens, UniProt Q9Y5Y4)
# Sequence (Q9Y5Y4 whole entry): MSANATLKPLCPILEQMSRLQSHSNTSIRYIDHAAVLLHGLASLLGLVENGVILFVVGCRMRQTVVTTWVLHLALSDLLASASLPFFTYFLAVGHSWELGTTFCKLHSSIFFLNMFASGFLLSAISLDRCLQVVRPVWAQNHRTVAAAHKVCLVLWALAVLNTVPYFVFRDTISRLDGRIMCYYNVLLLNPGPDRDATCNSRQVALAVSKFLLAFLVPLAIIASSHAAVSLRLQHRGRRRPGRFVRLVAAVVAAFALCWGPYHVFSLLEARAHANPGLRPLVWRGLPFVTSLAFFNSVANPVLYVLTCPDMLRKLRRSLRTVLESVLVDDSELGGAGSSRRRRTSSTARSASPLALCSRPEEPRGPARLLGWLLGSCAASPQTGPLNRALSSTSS
# assay_method_text: Human CRTH2 Receptor Binding Assay (whole cell, [3H]ramatroban competition)
# Set-up: expressed in transfected cells; host or cells: CHO-K1 (co-transfected with G-alpha16)
# condition_set: CHO-K1 cells expressing human CRTH2 and G-alpha16; 20 nM [3H]ramatroban; 1 hour, room temperature
Measured IC50 by item
Express the result in nM but write the number alone.

{"compound": "COc1cc(C(F)(F)F)cc(S(=O)(=O)N[C@@H]2CCCc3c(OCC(=O)O)cccc32)c1 [Example 10-10]", "IC50, nM": 18}
{"compound": "CN([C@@H]1CCCc2c(OCC(=O)O)cccc21)S(=O)(=O)c1cc(C(F)(F)F)cc(S(=O)(=O)C2CCCC2)c1 [Example 3-1]", "IC50, nM": 2.9}
{"compound": "CN([C@@H]1CCCc2c(OCC(=O)O)cccc21)S(=O)(=O)c1cc(C(F)(F)F)cc(C(F)(F)F)c1 [Example 1-6]", "IC50, nM": 18.3}
{"compound": "CN([C@@H]1CCCc2c(OCC(=O)O)cccc21)S(=O)(=O)c1cc(N2CCCC2)cc(C(F)(F)F)c1 [Example 4-1]", "IC50, nM": 127}
{"compound": "CC(C)Oc1cc(C(F)(F)F)cc(S(=O)(=O)N(C)[C@@H]2CCCc3c(OCC(=O)O)cccc32)c1 [Example 9-1]", "IC50, nM": 147}

### Prompt Could you please provide reported IC50 for CN([C@@H]1CCCc2c(OCC(=O)O)cccc21)S(=O)(=O)c1cc(OC2CCCC2)cc(C(F)(F)F)c1 [Example 9-3] ? Thanks!
### Response 423

### Prompt Specify reported IC50 for the compound shown: CC(C)(C)c1cc(C(C)(C)C)cc(S(=O)(=O)N[C@@H]2CCCc3c(OCC(=O)O)cccc32)c1 [Example 10-8]
### Response 31

### Prompt Please report the measured IC50 for CN([C@@H]1CCCc2c(OCC(=O)O)cccc21)S(=O)(=O)c1cc(C(F)(F)F)cc(C2(C)CC2)c1 [Example 7-1]
### Response 76.6
